# measurement target: Serine/threonine-protein kinase PAK 6 (Homo sapiens);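 note: values are mean percent inhibition of PAK6 kinase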
# protocol conditions: at 1 µM
measure: inhibition (%)
Just the number please, in %, no unit attached.

Past entries and their recorded results:
{"molecule": "COc1cc(Nc2ncc(-c3ccccc3)o2)cc(OC)c1", "measure": "inhibition", "readout unit": "%", "measured result": -4.99}
{"molecule": "Fc1ccc(Nc2nccc(-c3c(-c4ccc(C(F)(F)F)cc4)nn4ncccc34)n2)cc1F", "measure": "inhibition", "readout unit": "%", "measured result": 1.02}
{"molecule": "CS(=O)(=O)CCNCc1ccc(-c2ccc3ncnc(Nc4ccc(OCc5ccccc5)cc4)c3c2)o1", "measure": "inhibition", "readout unit": "%", "measured result": -0.08}
{"molecule": "CNC(=O)c1cncc(/C=C/c2ccccc2C)c1", "measure": "inhibition", "readout unit": "%", "measured result": 12}
{"molecule": "CN(C)CCNC(=O)Nc1ccc(N(C)c2ccnc(Nc3ccc(CS(C)(=O)=O)cc3)n2)cc1", "measure": "inhibition", "readout unit": "%", "measured result": -1.22}
{"molecule": "N#Cc1cccc(Nc2ncc(-c3ccccc3)o2)c1", "measure": "inhibition", "readout unit": "%", "measured result": -3.46}
{"molecule": "CCCNc1cccc(-n2ncc3c(N/N=C/c4ccncc4)ncnc32)c1", "measure": "inhibition", "readout unit": "%", "measured result": 2.09}
{"molecule": "CN1CCC(C(=O)Nc2n[nH]c3nc(-c4ccc(O)cc4)c(Br)cc23)CC1", "measure": "inhibition", "readout unit": "%", "measured result": -4.52}
{"molecule": "Cc1cc(O)cc(C)c1/C=C/c1cncc(C(=O)OC(C)(C)C)c1", "measure": "inhibition", "readout unit": "%", "measured result": -0.98}
{"molecule": "O=C1Nc2ccccc2/C1=C1\\CCc2cc(O)ccc21", "measure": "inhibition", "readout unit": "%", "measured result": -3.1}

Could you share which inhibition value was measured for CC1=C(C(=O)Nc2ccc3[nH]ncc3c2)C(c2ccc(F)cc2)N=C(c2ccc(C(F)(F)F)nc2)N1 (stereo unspecified) ?
1.5

Could you share which inhibition value was measured for CC1(C)CC(n2cnc(-c3ccc(F)cc3)c2-c2ccnc(N)n2)CC(C)(C)N1 ?
-4.18

Could you share which inhibition value was measured for O=C(O[C@H]1CN[C@H](C#Cc2cc3ncnc(Nc4ccc(OCc5cccc(F)c5)c(Cl)c4)c3s2)C1)N1CCOCC1 ?
-5.21

Could you share which inhibition value was measured for NS(=O)(=O)c1cccc(N/C=C2\C(=O)Nc3ccccc32)c1 ?
1.64

Could you share which inhibition value was measured for NC(=O)c1ccc2c(-c3ccnc(NCCCO)n3)c(-c3ccc(F)cc3)nn2c1 ?
-5.05

* * *

# measurement target: Inhibitor of nuclear factor kappa-B kinase subunit beta (Homo sapiens) (UniProt O14920);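 note: reported as mean inhibition, from the GSK PKIS screening set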
# Sequence (O14920 whole entry): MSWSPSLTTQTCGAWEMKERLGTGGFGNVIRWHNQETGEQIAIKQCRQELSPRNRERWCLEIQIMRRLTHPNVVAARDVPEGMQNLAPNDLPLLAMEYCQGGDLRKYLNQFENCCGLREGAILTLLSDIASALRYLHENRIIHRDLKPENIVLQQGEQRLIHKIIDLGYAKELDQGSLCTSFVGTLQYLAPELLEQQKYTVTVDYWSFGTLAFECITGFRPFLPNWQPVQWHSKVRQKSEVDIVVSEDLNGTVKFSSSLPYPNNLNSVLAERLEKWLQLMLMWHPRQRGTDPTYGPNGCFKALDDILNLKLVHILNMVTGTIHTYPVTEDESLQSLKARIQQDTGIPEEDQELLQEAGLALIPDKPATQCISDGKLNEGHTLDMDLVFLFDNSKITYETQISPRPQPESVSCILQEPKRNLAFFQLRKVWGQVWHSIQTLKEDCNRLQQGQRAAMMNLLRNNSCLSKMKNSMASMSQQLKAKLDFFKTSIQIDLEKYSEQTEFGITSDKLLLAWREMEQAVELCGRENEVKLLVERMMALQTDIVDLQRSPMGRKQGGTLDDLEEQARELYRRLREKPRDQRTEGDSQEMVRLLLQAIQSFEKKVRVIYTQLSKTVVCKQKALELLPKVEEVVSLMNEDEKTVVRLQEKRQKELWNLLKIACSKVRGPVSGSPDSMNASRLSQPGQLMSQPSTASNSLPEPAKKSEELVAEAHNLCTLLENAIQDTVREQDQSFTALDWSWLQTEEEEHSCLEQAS
# protocol conditions: at 1 µM
measure: inhibition (%)
Just the number please, in %, no unit attached.

{"smiles": "Cc1cc(O)cc(C)c1/C=C/c1cncc(C(=O)OC(C)(C)C)c1", "measurement target": "Inhibitor of nuclear factor kappa-B kinase subunit beta (Homo sapiens) (UniProt O14920)", "readout unit": "%", "inhibition": 2.32}
{"smiles": "CS(=O)(=O)CCNCc1ccc(-c2ccc3ncnc(Nc4ccc(OCc5cccc(C(F)(F)F)c5)cc4)c3c2)o1", "measurement target": "Inhibitor of nuclear factor kappa-B kinase subunit beta (Homo sapiens) (UniProt O14920)", "readout unit": "%", "inhibition": 8.68}
{"smiles": "CC1(C)CC(n2cnc(-c3ccc(F)cc3)c2-c2ccnc(N)n2)CC(C)(C)N1", "measurement target": "Inhibitor of nuclear factor kappa-B kinase subunit beta (Homo sapiens) (UniProt O14920)", "readout unit": "%", "inhibition": -1.15}
{"smiles": "CNC(=O)c1sc(-n2cnc3cc(OC)c(OC)cc32)cc1OCc1ccccc1C(F)(F)F", "measurement target": "Inhibitor of nuclear factor kappa-B kinase subunit beta (Homo sapiens) (UniProt O14920)", "readout unit": "%", "inhibition": 2.57}
{"smiles": "COc1cc2c(cc1Nc1nc(Nc3cccc(F)c3C(N)=O)c3cc[nH]c3n1)N(C(=O)CN1CCN(C(C)C)CC1)CC2", "measurement target": "Inhibitor of nuclear factor kappa-B kinase subunit beta (Homo sapiens) (UniProt O14920)", "readout unit": "%", "inhibition": 1.47}

Could you share which inhibition value was measured for CS(=O)(=O)CCNCc1ccc(-c2ccc3ncnc(Nc4ccc(OCc5ccccc5)cc4)c3c2)o1 ?
5.3

Could you share which inhibition value was measured for O=C(O[C@H]1CN[C@H](C#Cc2cc3ncnc(Nc4ccc(OCc5cccc(F)c5)c(Cl)c4)c3s2)C1)N1CCOCC1 ?
11.1

Could you share which inhibition value was measured for COc1ccccc1-c1cc(/C=C2\C(=O)Nc3ncc(Br)cc32)cc(Br)c1O ?
-0.48

Could you share which inhibition value was measured for c1cnn2ncc(-c3ccnc(NCCCN4CCOCC4)n3)c2c1 ?
4.44

# credit: ChEMBL document CHEMBL1961873
